# measurement-protocol: protein stability index of a GFP-peptide fusion (GPS, HEK-293T) (PSI 1-6); higher = more stable;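 note: 24-mer peptide tiles fused after GFP, lentivirally expressed, FACS-sorted into six equal bins by GFP/DsRed ratio, decoded by Illumina sequencing, PSI is the read-weighted mean bin number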
# condition-parameters: treatment: DMSO; c terminus: a fixed tail appended
endpoint: protein stability index
Response field accepts a number only; no unit should be typed.

Please report the recorded protein stability index for ICTNLCEALQNFFSLACSLMGPSR [M1AP] .
2.33

Please report the recorded protein stability index for QLQRSWVKMDQKSKHLKEMYQELM [TRIM43] .
2.36

Please report the recorded protein stability index for AGRPSLLRHDEVRTYFHEFGHVMH [NLN] .
2.48

Please report the recorded protein stability index for TFGNSTLALGPGESLPHRLSCLGQ [PLAGL1] .
3.19

Please report the recorded protein stability index for KGKVLAQQGEYSEAIPILRAALKL [FKBP8] .
2.37

Please report the recorded protein stability index for SAAAATAELLKKQEELNRKAEELD [SCAMP3] .
5.72

Please report the recorded protein stability index for MSVSEIFVELQGFLAAEQDIREEI [TSN] .
2.39

Please report the recorded protein stability index for DQTGSKSSNLLDLKNPFFRYTGTT [CARM1] .
3.44

Please report the recorded protein stability index for AYLVPYLVLLIIIGIPLFFLELAV [SLC6A17] .
3.83

Please report the recorded protein stability index for HGNLSEEAAKQMRSRGKVLKTKDG [CPOX] .
5.22

Please report the recorded protein stability index for STKPSGSPLEEKHDQCKCENLIMF [MATN2] .
3.3

Please report the recorded protein stability index for LLFACSPPPASQPVVKALFGASAA [CDC25A] .
2.44

Please report the recorded protein stability index for NEKETMQSLNDRLASYLDRVRSLE [KRT18] .
3.61

Please report the recorded protein stability index for YDPFRDAVTLRCGHNFCRGCVSRC [TRIM35] .
2.69

Please report the recorded protein stability index for LGHPALSQEEGKSALEDQGSNPSS [PPFIA4] .
5.59

Please report the recorded protein stability index for CPSPEALSPEPPVYSLQDFDTLAT [PRKX] .
4.61

Please report the recorded protein stability index for LDKVKDGGYRPAEDKIFPVPEEPP [ZBED1] .
5.11

Please report the recorded protein stability index for PLQLLREMRQALQALLKENRLLQE [CBY2] .
2.93

Please report the recorded protein stability index for TGTKKVTRILDGGNPFLDVPQALS [PSD2] .
3.24

Please report the recorded protein stability index for MFPVAPKPQDSSQPSDRLMTEKQQ [CEP70] .
5.28

Please report the recorded protein stability index for IVSEVQFVESSGGGSSAVGQFVSL [BRF1] .
2.25

Please report the recorded protein stability index for ATLTQVSVEYGYRPGATAVPTPLT [FCHO1] .
2.39

Please report the recorded protein stability index for VWAHNLIAIARLRGSDLKVLEVTE [FBXO33] .
2.63

Please report the recorded protein stability index for SLMPLQKSISPWKSPPQLRQFLPE [DENND6A] .
2.72

Please report the recorded protein stability index for LELNFKAGDVIFLLSRINKDWLEG [NCF4] .
2.77

Please report the recorded protein stability index for RPEGYNLKDEEGKLKDLSTVTSLQ [PPP2R2C] .
5.12

Please report the recorded protein stability index for KNVEENLYSSSLGGGVATSPMLIV [GLT8D2] .
2.26

Please report the recorded protein stability index for GAHWMRQLVSFQKLKLTNNHLDPF [TBX5] .
2.18

Please report the recorded protein stability index for LGAVAGLALGPILRLYKHNSQALL [MFSD9] .
2.59

Please report the recorded protein stability index for AERLGVTFFEVSPLCNFNIIESFT [RAB40A] .
2.32

Please report the recorded protein stability index for QVLLKGMTSISLPSVMDPGAFETV [ZBTB22] .
2.61

Please report the recorded protein stability index for NFCKEQAARISNKGKFSTDTKGKP [ZC2HC1A] .
3.78

Please report the recorded protein stability index for LFTIPLLYRQHQAQIDQYVGLVTN [RTN2] .
2.81

Please report the recorded protein stability index for ASPVPESSLTADLLSVDAFAAPSP [SNAP91] .
4.88

Please report the recorded protein stability index for LKLQTKDGHRPEWTFYPRFSSNIH [SPATS1] .
2.4

Please report the recorded protein stability index for QVLNAIEAYTEHRPEITSRAINLL [ZER1] .
2.56

Please report the recorded protein stability index for SLLFVVMFIPETKGCSLEQISMEL [SLC2A12] .
2.93

Please report the recorded protein stability index for GSKQYSAAIAFTLALFSHLVNHVN [SMG5] .
3.39

Please report the recorded protein stability index for PHTPQTPGQGGPASTPAQTAAGGQ [NR2F2] .
5.3

Please report the recorded protein stability index for ELVENIKSVLKSDEEHMEEAITSA [FAM189A2] .
3.64
